Provenance of the data: PubChem BioAssay AID1159580

# normalized growth per record follows
- Experiment description: chemical genetic growth profiling, strain panel (AID 1159580);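 further: tested at 20 µM; growth read once vehicle control cultures reached saturation at 30 °C; 1 = growth at the plate median or of vehicle wells; lower values mean less growth of the strain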
- Condition label: S. cerevisiae deletion strains, growth OD, locus YMR125W, strain sto1, hits give low values
The whole screen tested about 5,500 compounds, of which about 2,000 (36%) were called active. Another 18% or so got no clear call; they are omitted. The list shows a part of the results.
When you answer, write just the number.

The cases that follow already have their normalized growth on record.
Cc1cc(N)c2ccccc2[n+]1CCCCCCCCCC[n+]1c(C)cc(N)c2ccccc21
0.0824
Cc1ncc(CO)c(CO)c1O
1.01
CCCCCC(O)C1C(=O)OC(C)C(O)/C=C/C=C/C=C/C=C/C=C(\C)C(O)CC(O)CC(O)CC(O)CC(O)CC(O)CC1O (stereo not drawn)
0.959
NCCCC(O)(P(=O)(O)O)P(=O)(O)O
0.978
Oc1ccc2c3c1OC1[C@@H](O)CC[C@@]4(O)[C@@H](C2)N(CC2CCC2)CC[C@]314 (stereo partly drawn)
0.982

Problem: Sample "CCC(=O)NCC[C@@H]1CCc2ccc3c(c21)CCO3" — what was its normalized growth?
Solution: 1

Problem: Sample CC12CCC(=O)C=C1CCc1ccccc12 (stereo not drawn) — what was its normalized growth?
Solution: 0.969

Problem: Sample COP(N)(=O)SC (stereo not drawn) — what was its normalized growth?
Solution: 1.01

* * *

- Experiment description: chemical genetic growth profiling, strain panel (AID 1159580);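 further: tested at 20 µM; growth read once vehicle control cultures reached saturation at 30 °C; 1 = growth at the plate median or of vehicle wells; lower values mean less growth of the strain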
- Condition label: S. cerevisiae deletion strains, growth OD, locus YJL115W, strain asf1, hits give low values
Among all 5,500 compounds or so, about 2,000 (36%) were called active. About 18% were inconclusive and are not listed. The list shows a part of the results.
Measured parameter: normalized growth
When you answer, write just the number.

The cases that follow already have their normalized growth on record.
CC(=O)OC1CC[C@@]2(C)C(CCC3C2CC[C@]2(C)C(C4=CC(=O)OC4)C(OC(C)=O)CC32O)C1 (stereo partly drawn)
0.959
C[C@H]1O[C@@H](O[C@H]2[C@@H](O)C[C@H](O[C@H]3[C@@H](O)C[C@H](O[C@H]4CC[C@]5(C)C6C[C@@H](O)[C@]7(C)[C@@H](C8=CC(=O)OC8)CC[C@]7(O)C6CC[C@@H]5C4)O[C@@H]3C)O[C@@H]2C)C[C@H](O)[C@@H]1O (stereo partly drawn)
0.984

Problem: Sample C[C@H]1O[C@@H](O[C@H]2[C@@H](O)C[C@H](O[C@H]3[C@@H](O)C[C@H](O[C@H]4CC[C@]5(C)C6CC[C@]7(C)[C@@H](C8=CC(=O)OC8)CC[C@]7(O)C6CC[C@@H]5C4)O[C@@H]3C)O[C@@H]2C)C[C@H](O)[C@@H]1O (stereo partly drawn) — what was its normalized growth?
Solution: 0.965

* * *

- Experiment description: chemical genetic growth profiling, strain panel (AID 1159580);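 further: tested at 20 µM; growth read once vehicle control cultures reached saturation at 30 °C; 1 = growth at the plate median or of vehicle wells; lower values mean less growth of the strain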
- Condition label: S. cerevisiae deletion strains, growth OD, locus YOR083W, strain WHI5 (second series)
Screen size: about 5,500 compounds; about 2,000 (36%) were called active. Not shown: some 18% with an inconclusive outcome. Cut-off read from the data, not from the text of the source: active = normalized growth mostly below about 0.91 (no sharp cut-off); inconclusive = no clear call, values can overlap the other calls; inactive = mostly above about 0.92. This is one part of the list.
Pick one: active, inactive

NCCS(=O)O
inactive
CP(=O)(O)CCCN
inactive
Cc1ccc(OCC(O)C(C)NC(C)C)c2c1CCC2 (stereo not drawn)
inactive
CC(=O)O[C@]1(C(C)=O)CC[C@H]2[C@@H]3C=C(Cl)C4=CC(=O)[C@@H]5C[C@@H]5[C@]4(C)[C@H]3CC[C@@]21C
inactive
COc1ccccc1N1CCN(CCN(C(=O)c2ccc(F)cc2)c2ccccn2)CC1
inactive

Problem: Hi, do you know how "C#CCOC(=O)C1=CCCN(C)C1" came out in this test?
Solution: inactive

Problem: Hi, do you know how "O=C(O)CN(CCN(CC(=O)O)CC(=O)O)CCN(CC(=O)O)CC(=O)O" came out in this test?
Solution: inactive

Problem: Hi, do you know how CNCCC(Oc1ccccc1C)c1ccccc1 (stereo not drawn) came out in this test?
Solution: inactive

Problem: Hi, do you know how "COc1ccccc1N1CCN(CCN(C(=O)c2ccc(I)cc2)c2ccccn2)CC1" came out in this test?
Solution: inactive

Problem: Hi, do you know how CCC1(O)C(=O)OCc2c1cc1n(c2=O)Cc2cc3ccccc3nc2-1 (stereo not drawn) came out in this test?
Solution: active

Problem: Hi, do you know how "O=C1CC2(CCCC2)CC(=O)N1CCCCN1CCN(c2ncccn2)CC1" came out in this test?
Solution: inactive

Problem: Hi, do you know how "O=C(CCCN1CCC(O)(c2cccc(C(F)(F)F)c2)CC1)c1ccc(F)cc1" came out in this test?
Solution: inactive
